Just for reference, paper PMC10077203 is where these values come from.

Test system: N. laevissima
Test: Diatom growth inhibition assay (antialgal activity)
Assay type: cell-based, Navicula laevissima
Conditions: 48 h, chlorophyll a of attached microalgae; read-out: EC50 N. laevissima
Measured property: pEC50
pEC50 is a log-scale quantity: -log10 of the concentration expressed in molar.

Guide cases for pEC50, answers given:
Compound	pEC50
CCCCCCCCn1sc(Cl)c(Cl)c1=O [SeaNine 211, reference compound]	5.54
COc1cc2c(c(OCc3ccccc3Br)c1)C(=O)OC(C)CC=CC(O)C(O)C(O)CC=C2 (stereo not drawn) [Compound 9]	5.18

pEC50 measured on COCC(=O)Oc1cc(OC)cc2c1C(=O)O[C@@H](C)C/C=C/[C@H](O)[C@@H](O)[C@@H](O)C/C=C/2 [Compound 34] = 5.06

---

Catalogue of molecules with associated pEC50
Tested on: N. laevissima
Assay: Diatom growth inhibition assay (antialgal activity)
Type: cell-based, Navicula laevissima
Details: Sellaphora laevissima, 48 h, chlorophyll a of attached microalgae, read-out: EC50 N. laevissima
In simple prose, pEC50 is minus the logarithm base ten of a concentration in moles per litre.

Some solved cases for reference:
Molecule	Tested on	Measured property	Recorded number
COc1cc(COc2cc(OC)cc3c2C(=O)OC(C)CC=CC(O)C(O)C(O)CC=C3)cc(OC)c1 (stereo not shown) [Compound 12]	N. laevissima	pEC50	4.70
COc1cc2c(c(OCc3ccc4ccccc4c3)c1)C(=O)OC(C)CC=CC(O)C(O)C(O)CC=C2 (stereo not shown) [Compound 14]	N. laevissima	pEC50	4.69
COc1cc2c(c(OCc3ccccc3)c1)C(=O)OC(C)CC=CC(O)C(O)C(O)CC=C2 (stereo not shown) [Compound 4]	N. laevissima	pEC50	4.87
COc1cc2c(c(OCc3ccc(Br)cc3F)c1)C(=O)OC(C)CC=CC(O)C(O)C(O)CC=C2 (stereo not shown) [Compound 24]	N. laevissima	pEC50	4.65
COc1cc2c(c(OCc3ccc(C(F)(F)F)cc3)c1)C(=O)OC(C)CC=CC1OC(C)(C)OC1C(O)CC=C2 (stereo not shown) [Compound 45]	N. laevissima	pEC50	4.56

GET /value?item= COc1cc(COc2cc(OC)c(Cl)c3c2C(=O)OC(C)CC=CC(O)C(O)C(O)CC=C3)cc(OC)c1 (stereo not shown) [Compound 13] &field=pEC50 returns 4.77

Entry COCC(=O)Oc1cc(OC)cc2c1C(=O)O[C@@H](C)C/C=C/[C@H](O)[C@@H](O)[C@@H](O)C/C=C/2 [Compound 34] — recorded pEC50 = 5.07

---

Parameter: EC50. Scope: all listed entries.
System: P. tricornutum Bohlin
Assay: Diatom growth inhibition assay (antialgal activity)
Assay type: cell-based, Phaeodactylum tricornutum Bohlin
Details: Phaeodactylum tricornutum, 48 h, chlorophyll a of attached microalgae, read-out: EC50 P. tricornutum
Answer with a number only, understood to be in µM.

Sample COc1cc(COc2cc(OC)c(Cl)c3c2C(=O)OC(C)CC=CC(O)C(O)C(O)CC=C3)cc(OC)c1 (stereo not drawn) ; EC50 observed: 14

---

Tested on: C. vulgaris
Assay: Diatom growth inhibition assay (antialgal activity)
Format: cell-based, Chlorella vulgaris
Details: 48 h, chlorophyll a of attached microalgae; read-out: EC50 C. vulgaris
Measured property: pEC50
Reminder that pEC50 is minus the log10 of a molar concentration.

Measured pEC50 of CCCCCCCCn1sc(Cl)c(Cl)c1=O [SeaNine 211, reference compound] : 5.19

---

Tested on: N. laevissima
Assay: Diatom growth inhibition assay (antialgal activity)
Type: cell-based, Navicula laevissima
Conditions: Sellaphora laevissima, 48 h, chlorophyll a of attached microalgae, read-out: EC50 N. laevissima
pEC50: −log10 of the molar value.
Measured property: pEC50

For orientation, consider the following solved cases.
Compound	Result
COc1cc2c(c(OCc3ccccc3Br)c1)C(=O)OC(C)CC=CC(O)C(O)C(O)CC=C2 (stereo not drawn)	> 5.00
COc1cc2c(c(OCc3ccc(C(C)(C)C)cc3)c1)C(=O)OC(C)CC=CC(O)C(O)C(O)CC=C2 (stereo not drawn)	< 5.00
COc1cc2c(c(OCc3cc(F)cc(F)c3)c1)C(=O)OC(C)CC=CC(O)C(O)C(O)CC=C2 (stereo not drawn)	< 5.00
[2H]C([2H])([2H])C1(C([2H])([2H])[2H])OC2C=CCC(C)OC(=O)c3c(cc(OC)cc3OCc3cccc(C)c3)C=CCC(O)C2O1 (stereo not drawn)	< 5.00
[2H]C([2H])([2H])C1(C([2H])([2H])[2H])OC2C=CCC(C)OC(=O)c3c(cc(OC)cc3OCc3ccccc3Br)C=CCC(O)C2O1 (stereo not drawn)	< 5.00

Shifting focus to the compound that follows.
// returns pEC50 for COc1cc(OC(=O)C(C)(C)C)c2c(c1Cl)C=CCC(O)C(O)C(O)C=CCC(C)OC2=O (stereo not drawn) with N. laevissima; value = < 5.00

---

System: P. tricornutum Bohlin
Assay: Diatom growth inhibition assay (antialgal activity)
Assay type: cell-based, Phaeodactylum tricornutum Bohlin
Conditions: Phaeodactylum tricornutum, 48 h, chlorophyll a of attached microalgae, read-out: EC50 P. tricornutum
The entries below come with measured pEC50 values attached.
Lab note — pEC50 values are minus log10 of concentrations in M.

response.value for COc1cc(COc2cc(OC)cc3c2C(=O)OC(C)CC=CC(O)C(O)C(O)CC=C3)cc(OC)c1 (centres unmarked) (field: pEC50) = 4.49

# molecule COc1cc2c(c(OCc3ccccc3)c1)C(=O)OC(C)CC=CC(O)C(O)C(O)CC=C2 (centres unmarked) ; its pEC50 = 4.68

Noted for COc1cc2c(c(OCc3ccc(Br)cc3F)c1)C(=O)OC(C)CC=CC(O)C(O)C(O)CC=C2 (centres unmarked) : its pEC50 reads 4.95

The reported pEC50 of the molecule COc1cc2c(c(OCc3cc(F)cc(F)c3)c1)C(=O)OC(C)CC=CC(O)C(O)C(O)CC=C2 (centres unmarked) was 4.48
